Where do the numbers come from? From the supplement of paper PMC6555819.

Reported PBM binding z-score values follow for various sequences
Test system: VDR:RXRa (NR concentration 270 nM, RXRa partner concentration 90 nM)
Experiment: PBM binding z-score (relative to random genomic background probes); higher = stronger binding; sequences stand for … in GC…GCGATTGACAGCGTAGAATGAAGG

sequence-entry	PBM binding z-score
TAGCCTAGGTCATTCAGGGGCGAGTATAGAAAGC	4.57
CCAGACAGGTGATAGGTAACTCAGTCTGGTACGC	-0.0769
CGTCCAAGGTCTAAGGTCAGTGAAGAGATGACGG	1.73
GTACCAAGGTGAATAGGTCGTTTATGAGTAGGCG	1.07
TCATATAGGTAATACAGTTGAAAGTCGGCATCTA	1.63
AGTATTAGTTGACTTAGGGCAACCGATACGACGC	0.573
AATAGCAGGCCAAGGGTCACTCAAGATTAGTCCG	2.92
TCTAGTAGGCCAGAGGGTCACTCAAGAGGTACGG	1.91
ATCTCTAGGTGAAGTTCAGTGAAAGATCGATAGA	0.563
ATCTCTAGGTAAGACTCAGTTCAGTGCAGAACGC	0.866
TCATATAGGTAAAGGTGCAAGTCGAACGATATGA	0.567
CCTACTGAGCCACGAAAGGTCATTGATTCAGTGA	3.97

---

System: PPARg:RXRa 30nM:10nM, anti-RXR (NR concentration 30 nM, RXRa partner concentration 10 nM)
Assay: PBM binding z-score (relative to random genomic background probes); higher = stronger binding; sequences stand for … in GC…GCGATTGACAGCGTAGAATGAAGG
The entries below come with measured PBM binding z-score values attached.
measure: PBM binding z-score

sequence-entry	value-observed
ATCGAAAGGTCGACGAGGTGATTATACACCGTTT	1.22
CCTTCTGGGCCAAGGTCATTGATCAGTCAAAGCA	1.37
CCTAGCAGGCCAGGGTCACGCAAGCATTTCGCTT	0.595
AGGATGAGGTTATTAAGATCAGGGAATTGCGGTC	0.391
AATACAGGGTCATCGTAGGCCTGAGTACGCACAG	2.71
CCTAGCAGGCCAGGGTCATTCAAGCATTTCGCTT	-0.631
TTACCAAGGTGACAGGTCGTTGATGCACGCCTTG	1.99
TAGCCTAGGTCATGGGCCAGGATACCACGCGAAC	1.12
TAGCCTAGGTCATTCGGCCAGTATAGTACGCATC	0.539
ATATGTAGGTTACATACGGGTCATTCAGGCTATG	2.62
ACTTACGGGTCAACGAGGTTATAACACGCGTATA	2.6
GCAACTGGGGCAAAGCAGGTTACCATAAGGTTGG	0.156
GCTGCTAGGTCAGGTTAGTCAGCTAACGGGTACG	-0.493
ATCGAACGGTCGTGAGGTGAGTATACAGAAAGGC	-0.119
CTCGAAAGGTCGTGCTCATGTGAGTATACCAAAC	0.836
CGTCAAAGTTCAGGGTAACGTAACAGAAAGCAGC	1.26
CGTCCAAGGTCAGTAGGTCAGTGAAAGCGACGTG	2.74
CCTAGCAGGCCAATCTGGGTCTCTCAAGGCTTGA	-1.1
TGGCCTAGGTCAGATCGGGCCAGTATACGCTATA	-0.693
AGTATGAGGTTATTAAGATCAGGGAATTGCGGTC	0.453
CGTCCATGGTCAGCAGGTCAGTGAAAGCGACGTG	-0.823
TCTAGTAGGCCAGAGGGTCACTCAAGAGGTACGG	4.21
CCTTACGGGTCACTCCAGGTTATACCATCGGAGT	1.11
ATATGTAGGTTATCGGGTCAGTCAGTTTGCGCAT	3.11
TATCCTAGGTCATGCGGGCCAGTATAGTGTCGGC	1.55
TCTTGTAGATCAACAGGATGTTAAGAAAGATCGA	2.66
